- ASSAYED_SYSTEM: UniProt P51531
- Sequence (P51531 whole entry): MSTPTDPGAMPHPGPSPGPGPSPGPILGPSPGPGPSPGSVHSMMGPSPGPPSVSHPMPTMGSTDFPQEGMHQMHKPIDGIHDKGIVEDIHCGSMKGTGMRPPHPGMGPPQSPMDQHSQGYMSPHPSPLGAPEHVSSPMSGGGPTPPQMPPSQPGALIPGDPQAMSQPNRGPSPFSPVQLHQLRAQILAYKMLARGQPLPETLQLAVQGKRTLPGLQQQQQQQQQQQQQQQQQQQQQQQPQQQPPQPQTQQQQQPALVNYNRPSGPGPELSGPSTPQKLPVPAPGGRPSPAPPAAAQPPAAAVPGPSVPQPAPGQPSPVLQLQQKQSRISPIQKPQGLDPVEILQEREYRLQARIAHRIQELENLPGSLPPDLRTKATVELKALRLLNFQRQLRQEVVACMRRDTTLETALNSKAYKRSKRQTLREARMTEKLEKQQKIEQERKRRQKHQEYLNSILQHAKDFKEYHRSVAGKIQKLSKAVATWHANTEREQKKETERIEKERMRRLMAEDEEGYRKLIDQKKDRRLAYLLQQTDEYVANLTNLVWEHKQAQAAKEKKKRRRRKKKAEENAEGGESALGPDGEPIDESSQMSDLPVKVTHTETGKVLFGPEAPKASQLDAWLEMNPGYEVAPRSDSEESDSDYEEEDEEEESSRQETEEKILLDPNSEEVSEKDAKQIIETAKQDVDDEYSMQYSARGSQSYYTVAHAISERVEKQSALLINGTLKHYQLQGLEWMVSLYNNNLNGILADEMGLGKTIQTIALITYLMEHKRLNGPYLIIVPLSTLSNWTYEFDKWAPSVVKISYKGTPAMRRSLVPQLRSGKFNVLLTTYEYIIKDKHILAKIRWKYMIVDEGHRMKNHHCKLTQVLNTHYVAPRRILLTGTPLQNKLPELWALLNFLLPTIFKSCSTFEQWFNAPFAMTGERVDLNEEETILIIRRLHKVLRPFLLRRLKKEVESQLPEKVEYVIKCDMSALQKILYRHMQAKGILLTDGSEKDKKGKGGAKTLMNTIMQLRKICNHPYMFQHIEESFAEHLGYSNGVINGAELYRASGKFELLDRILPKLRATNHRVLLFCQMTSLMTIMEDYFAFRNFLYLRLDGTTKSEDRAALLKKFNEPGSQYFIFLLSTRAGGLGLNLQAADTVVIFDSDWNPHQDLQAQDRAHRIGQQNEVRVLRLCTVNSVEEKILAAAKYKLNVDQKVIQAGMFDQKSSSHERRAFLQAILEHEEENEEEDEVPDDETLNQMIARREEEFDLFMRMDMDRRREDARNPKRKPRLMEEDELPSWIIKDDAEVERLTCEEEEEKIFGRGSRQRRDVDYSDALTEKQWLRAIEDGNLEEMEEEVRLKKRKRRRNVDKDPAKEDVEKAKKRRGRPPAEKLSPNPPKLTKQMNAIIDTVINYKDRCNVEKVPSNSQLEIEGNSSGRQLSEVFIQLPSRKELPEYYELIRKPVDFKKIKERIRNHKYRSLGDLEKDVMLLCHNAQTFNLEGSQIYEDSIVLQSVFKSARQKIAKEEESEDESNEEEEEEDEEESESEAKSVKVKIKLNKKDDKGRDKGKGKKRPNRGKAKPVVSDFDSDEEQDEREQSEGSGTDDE
- ASSAY_REMARKS: ATPase catalytic activity assay of BRM (ADP-Glo)
- Format: biochemical
- STUDY_CONDITIONS: read-out: BRM IC50 (μM)*
VALUE_TYPE: IC50

In: Using the record for COC(=O)N1CCC[C@@H](c2csc(NC(=O)CNC(=O)c3ccc4c(c3)[C@@](C)(C#N)COC4)n2)C1 (stereo in doubt) [Compound 354] , state its measured IC50.
Out: 0.1 to 1 µM

In: Using the record for C[C@@]1(F)COCc2ccc(C(=O)NCC(=O)Nc3nc(-c4cccc(N5CCC5)c4)cs3)cc21 [Compound 332] , state its measured IC50.
Out: < 0.1 µM

In: Using the record for Cc1nccc(-c2cccc(-c3csc(NC(=O)CNC(=O)c4ccc(C)c(C(C)(C)CN)c4)n3)n2)n1 [Compound 206] , state its measured IC50.
Out: 0.1 to 1 µM

In: Using the record for C[C@@H]1CN(c2cccc(-c3csc(NC(=O)CNC(=O)c4ccc5c(c4)C4(CCCC4=O)CC5)n3)c2)C[C@H](C)O1 (stereo partly drawn) [Compound 195] , state its measured IC50.
Out: 0.1 to 1 µM

In: Using the record for C[C@@H]1CN(c2cccc(-c3csc(NC(=O)CNC(=O)c4ccc5c(c4)[C@](C)(CO)CO5)n3)n2)C[C@H](C)O1 (single isomer, unassigned) [Compound 132] , state its measured IC50.
Out: 0.1 to 1 µM

In: Using the record for CC1(CO)CCc2ccc(C(=O)NCC(=O)Nc3nc(-c4cccc(-c5ccncc5)c4)cs3)cc21 (single isomer, unassigned) [Compound 107] , state its measured IC50.
Out: 0.1 to 1 µM

====

- ASSAYED_SYSTEM: BRG-1 (Homo sapiens)
- Sequence (P51532 whole entry): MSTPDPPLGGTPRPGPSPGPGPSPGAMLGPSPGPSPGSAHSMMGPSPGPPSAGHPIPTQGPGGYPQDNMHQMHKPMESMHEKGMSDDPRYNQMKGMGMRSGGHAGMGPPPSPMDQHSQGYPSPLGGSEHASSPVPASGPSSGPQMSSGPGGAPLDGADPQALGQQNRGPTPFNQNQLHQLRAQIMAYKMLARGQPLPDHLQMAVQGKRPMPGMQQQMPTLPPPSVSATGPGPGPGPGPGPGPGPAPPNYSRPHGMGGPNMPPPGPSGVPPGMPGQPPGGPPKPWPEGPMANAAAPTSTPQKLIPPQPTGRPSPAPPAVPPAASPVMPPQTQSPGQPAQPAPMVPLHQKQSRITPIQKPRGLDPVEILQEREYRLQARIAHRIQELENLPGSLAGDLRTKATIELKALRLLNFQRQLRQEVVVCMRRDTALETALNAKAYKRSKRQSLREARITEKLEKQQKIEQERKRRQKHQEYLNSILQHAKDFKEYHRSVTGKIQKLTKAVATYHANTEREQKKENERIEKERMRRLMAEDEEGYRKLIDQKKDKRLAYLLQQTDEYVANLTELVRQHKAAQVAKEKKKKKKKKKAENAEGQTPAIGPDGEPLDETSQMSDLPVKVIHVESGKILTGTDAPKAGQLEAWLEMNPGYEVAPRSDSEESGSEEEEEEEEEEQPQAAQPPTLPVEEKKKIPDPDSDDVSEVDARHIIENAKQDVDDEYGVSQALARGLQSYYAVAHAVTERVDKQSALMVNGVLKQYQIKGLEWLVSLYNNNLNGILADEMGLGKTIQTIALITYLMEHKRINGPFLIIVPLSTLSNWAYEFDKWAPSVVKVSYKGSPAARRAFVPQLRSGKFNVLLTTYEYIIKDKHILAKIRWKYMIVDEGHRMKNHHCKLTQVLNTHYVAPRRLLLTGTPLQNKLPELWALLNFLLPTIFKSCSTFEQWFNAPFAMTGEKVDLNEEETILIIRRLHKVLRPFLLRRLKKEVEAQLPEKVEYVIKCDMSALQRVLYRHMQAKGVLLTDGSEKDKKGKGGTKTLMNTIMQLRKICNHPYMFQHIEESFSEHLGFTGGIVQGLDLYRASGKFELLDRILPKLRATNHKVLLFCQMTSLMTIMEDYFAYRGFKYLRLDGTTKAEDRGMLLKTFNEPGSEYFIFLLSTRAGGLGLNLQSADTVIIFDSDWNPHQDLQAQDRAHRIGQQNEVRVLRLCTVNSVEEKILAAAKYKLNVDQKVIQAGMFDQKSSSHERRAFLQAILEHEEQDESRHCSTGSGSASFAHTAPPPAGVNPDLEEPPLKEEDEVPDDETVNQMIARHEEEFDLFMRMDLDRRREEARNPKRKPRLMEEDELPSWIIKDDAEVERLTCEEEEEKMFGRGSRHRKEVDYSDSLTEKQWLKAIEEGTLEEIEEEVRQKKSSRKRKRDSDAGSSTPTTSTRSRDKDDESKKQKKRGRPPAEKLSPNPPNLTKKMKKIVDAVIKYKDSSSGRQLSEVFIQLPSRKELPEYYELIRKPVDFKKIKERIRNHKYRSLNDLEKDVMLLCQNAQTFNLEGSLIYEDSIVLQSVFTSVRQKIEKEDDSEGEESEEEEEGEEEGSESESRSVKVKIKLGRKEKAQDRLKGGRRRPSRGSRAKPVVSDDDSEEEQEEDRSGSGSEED
- ASSAY_REMARKS: ATPase catalytic activity assay of BRG-1 (ADP-Glo)
- Assay type: biochemical
- STUDY_CONDITIONS: ATPase catalytic activity, ADP-Glo; read-out: BRG1 Max % Inhibition
VALUE_TYPE: Emax

In: GET Emax | system: BRG-1 (Homo sapiens) | item: CCc1ccc(C(=O)NCC(=O)Nc2nc(-c3cccc(-c4ccn(C)n4)c3)cs2)cc1C(C)(C)CN
Out: > 30%

In: GET Emax | system: BRG-1 (Homo sapiens) | item: COC1CN(c2cccc(-c3csc(NC(=O)CNC(=O)c4ccc5c(c4)[C@](C)(C#N)COC5)n3)c2)C1
Out: > 95%

In: GET Emax | system: BRG-1 (Homo sapiens) | item: C[C@@]1(C#N)COCc2ccc(C(=O)NCC(=O)Nc3nc(-c4cccc(C(F)F)c4)cs3)cc21
Out: > 95%

In: GET Emax | system: BRG-1 (Homo sapiens) | item: C[C@@H]1CN(c2cccc(-c3csc(NC(=O)CNC(=O)c4cnc5c(c4)[C@@](C)(C#N)CC5)n3)c2)C[C@H](C)O1
Out: > 50%

In: GET Emax | system: BRG-1 (Homo sapiens) | item: C[C@@H]1CN(c2cccc(-c3csc(NC(=O)CNC(=O)c4cccc(C5(CO)COC5)c4)n3)c2)C[C@H](C)O1
Out: > 50%

In: GET Emax | system: BRG-1 (Homo sapiens) | item: CC(C)(/C(N)=N\O)c1cccc(C(=O)NCC(=O)Nc2nc(-c3cccc(-c4ccncc4)c3)cs2)c1
Out: > 50%

In: GET Emax | system: BRG-1 (Homo sapiens) | item: CC(C)S(=O)(=O)c1cccc(C(=O)NCC(=O)Nc2nc(-c3cccc(-c4cccc(CN)c4)c3)cs2)c1
Out: > 70%
